I'd appreciate it if you could supply IC50 values for the items below.
- assayed_target: E3 ubiquitin-protein ligase XIAP/Receptor-interacting serine/threonine-protein kinase 2 (Homo sapiens, UniProt O43353+P98170)
- Sequence (P98170 whole entry): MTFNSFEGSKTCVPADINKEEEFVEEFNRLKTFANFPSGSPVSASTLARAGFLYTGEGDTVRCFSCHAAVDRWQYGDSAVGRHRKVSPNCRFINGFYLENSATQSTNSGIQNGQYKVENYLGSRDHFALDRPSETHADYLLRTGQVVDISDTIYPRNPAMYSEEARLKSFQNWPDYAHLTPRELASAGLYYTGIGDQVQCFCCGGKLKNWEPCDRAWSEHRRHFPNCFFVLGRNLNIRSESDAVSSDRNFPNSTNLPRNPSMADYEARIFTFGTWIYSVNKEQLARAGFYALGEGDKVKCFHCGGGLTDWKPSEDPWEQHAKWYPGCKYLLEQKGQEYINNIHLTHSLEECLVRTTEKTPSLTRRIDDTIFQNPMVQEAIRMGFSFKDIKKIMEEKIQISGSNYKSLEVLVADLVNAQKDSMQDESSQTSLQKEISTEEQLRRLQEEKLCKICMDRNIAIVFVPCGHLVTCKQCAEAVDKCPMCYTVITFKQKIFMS
- Sequence (O43353 whole entry): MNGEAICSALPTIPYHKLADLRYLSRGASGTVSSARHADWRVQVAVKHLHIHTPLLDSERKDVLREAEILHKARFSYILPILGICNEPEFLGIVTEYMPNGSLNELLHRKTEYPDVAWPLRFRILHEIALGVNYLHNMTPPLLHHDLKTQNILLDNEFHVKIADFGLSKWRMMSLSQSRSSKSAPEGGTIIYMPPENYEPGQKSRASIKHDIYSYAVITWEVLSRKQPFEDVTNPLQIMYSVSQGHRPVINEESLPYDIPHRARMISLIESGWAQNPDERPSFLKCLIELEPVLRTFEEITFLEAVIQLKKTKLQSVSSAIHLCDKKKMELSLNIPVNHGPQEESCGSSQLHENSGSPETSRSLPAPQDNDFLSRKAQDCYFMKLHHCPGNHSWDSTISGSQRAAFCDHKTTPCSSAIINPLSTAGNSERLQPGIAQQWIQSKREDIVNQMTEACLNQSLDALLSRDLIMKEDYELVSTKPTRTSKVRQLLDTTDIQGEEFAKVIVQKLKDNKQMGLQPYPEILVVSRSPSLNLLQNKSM
- experiment_notes: Protac activity at IAP/RIPK2 in human whole blood assessed as inhibition of MDP-induced TNFalpha production by ELISA
Give bare numbers, in nM.

Recorded IC50, per entry:
# mol_smiles, IC50 (nM)
measured = [
    ("CN[C@@H](C)C(=O)N[C@H](C(=O)N1Cc2cc(OCCOCCOCCOCCOc3cc4nccc(Nc5ccc6scnc6c5)c4cc3S(=O)(=O)C(C)(C)C)ccc2C[C@@H]1C(=O)N[C@@H]1CCCc2ccccc21)C(C)(C)C", 10),
    ("CN[C@@H](C)C(=O)N[C@H](C(=O)N1CCC[C@H]1c1nc(C(=O)c2ccc(F)cc2)cs1)C1CCN(C(=O)c2cnc(N3CCN(CCCOc4cc5ncnc(Nc6n[nH]c(C)c6C)c5cc4S(=O)(=O)C(C)(C)C)CC3)nc2)CC1", 2),
]

Look at this compound and give its reported IC50. `CN[C@@H](C)C(=O)N[C@H](C(=O)N1CCC[C@H]1c1nc(C(=O)c2ccc(F)cc2)cs1)C1CCN(C(=O)c2ccc(N3CCN(CCCOc4cc5ncnc(Nc6n[nH]c(C)c6C)c5cc4S(=O)(=O)C(C)(C)C)CC3)cc2)CC1` 12.6

====

- assayed_target: E3 ubiquitin-protein ligase XIAP/Receptor-interacting serine/threonine-protein kinase 2 (Homo sapiens, UniProt O43353+P98170)
- experiment_notes: Protac activity at IAP/RIPK2 in human whole blood assessed as inhibition of MDP-induced TNFalpha production by ELISA
For each record, write down the corresponding pIC50.
One number for each entry, as −log10 of the molar value.

# compound, quantitative_result
rows = [
    ("CN[C@@H](C)C(=O)N[C@H](C(=O)N1Cc2cc(OCCOCCOCCOCCOc3cc4ncnc(Nc5n[nH]c(C)c5C)c4cc3S(=O)(=O)C(C)(C)C)ccc2CC1C(=O)N[C@@H]1CCCc2ccccc21)C(C)(C)C (single isomer, unassigned)", 7.50),
]

Here are 3 compounds. What values of pIC50 were reported for them?
1. CN[C@@H](C)C(=O)N[C@H](C(=O)N1CCC[C@H]1c1nc(C(=O)c2ccc(F)cc2)cs1)C1CCN(C(=O)c2cnc(N3CCN(CCOc4cc5ncnc(Nc6n[nH]c(C)c6C)c5cc4S(=O)(=O)C(C)(C)C)CC3)nc2)CC1
2. CN[C@@H](C)C(=O)N[C@H](C(=O)N1CCC[C@H]1c1nc(C(=O)c2ccc(F)cc2)cs1)C1CCN(C(=O)c2ccc(N3CCN(CCCOc4cc5ncnc(Nc6n[nH]c(C)c6C)c5cc4S(=O)(=O)C(C)(C)C)CC3)nc2)CC1
3. CN[C@@H](C)C(=O)N[C@H](C(=O)N1CCC[C@H]1c1nc(C(=O)c2ccc(F)cc2)cs1)C1CCN(C(=O)c2cnc(N3CCC(CCOc4cc5ncnc(Nc6n[nH]c(C)c6C)c5cc4S(=O)(=O)C(C)(C)C)CC3)nc2)CC1

1: 7.70; 2: 8.10; 3: 7.80

====

Below are pIC50 values measured for Receptor-interacting serine/threonine-protein kinase 2 (Homo sapiens, UniProt O43353).
Answers are plain numbers, as −log10 of the molar value.

# mol_smiles, recorded_endpoint, quantitative_result
records = [
    ("CN[C@@H](C)C(=O)N[C@H](C(=O)N1CCC[C@H]1c1nc(C(=O)c2ccc(F)cc2)cs1)C1CCN(C(=O)c2ccc(N3CCN(CCCOc4cc5ncnc(Nc6n[nH]c(C)c6C)c5cc4S(=O)(=O)C(C)(C)C)CC3)cc2)CC1", "pIC50", 7.50),
]

Give pIC50 for each listed item.
1. CN[C@@H](C)C(=O)N[C@H](C(=O)N1CCC[C@H]1c1nc(C(=O)c2ccc(F)cc2)cs1)C1CCN(C(=O)COCCOCCOCCOCCOc2cc3nccc(Nc4ccc5scnc5c4)c3cc2S(=O)(=O)C(C)(C)C)CC1
2. CN[C@@H](C)C(=O)N[C@H](C(=O)N1CCC[C@H]1c1nc(C(=O)c2ccc(F)cc2)cs1)C1CCN(C(=O)c2cnc(N3CCC(CCOc4cc5ncnc(Nc6n[nH]c(C)c6C)c5cc4S(=O)(=O)C(C)(C)C)CC3)nc2)CC1
3. CN[C@@H](C)C(=O)N[C@H](C(=O)N1CCC[C@H]1c1nc(C(=O)c2ccc(F)cc2)cs1)C1CCN(C(=O)COCCOCCOCCOCCOc2cc3ncnc(Nc4n[nH]c(C)c4C)c3cc2S(=O)(=O)C(C)(C)C)CC1

8.30
7.40
6.80

====

- assayed_target: Protein cereblon/Receptor-interacting serine/threonine-protein kinase 2 (Homo sapiens, UniProt O43353+Q96SW2)
- Sequence (Q96SW2 whole entry, one chain of several): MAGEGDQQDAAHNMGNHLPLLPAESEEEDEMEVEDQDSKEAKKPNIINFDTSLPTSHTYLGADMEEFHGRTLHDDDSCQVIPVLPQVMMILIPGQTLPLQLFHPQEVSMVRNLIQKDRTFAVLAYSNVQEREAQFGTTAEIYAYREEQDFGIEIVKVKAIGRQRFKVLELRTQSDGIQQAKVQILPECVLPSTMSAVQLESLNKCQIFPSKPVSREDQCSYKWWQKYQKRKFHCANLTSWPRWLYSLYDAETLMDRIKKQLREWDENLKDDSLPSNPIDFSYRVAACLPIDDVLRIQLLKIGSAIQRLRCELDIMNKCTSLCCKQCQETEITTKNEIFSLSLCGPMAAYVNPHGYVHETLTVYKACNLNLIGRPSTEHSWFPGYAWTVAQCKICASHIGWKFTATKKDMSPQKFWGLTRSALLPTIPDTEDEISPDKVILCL
- experiment_notes: Protac activity at CRBN/RIPK2 in human whole blood assessed as inhibition of MDP-induced TNFalpha production by ELISA
Please respond with reported IC50 for every item in the list.
Give bare numbers, in nM.

Could you tell me IC50 for each of these compounds? They are listed below.
1. Cc1ncsc1-c1ccc(CNC(=O)[C@@H]2C[C@@H](O)CN2C(=O)[C@@H](NC(=O)COCCOCCOCCOCCOc2cc3nccc(Nc4ccc5scnc5c4)c3cc2S(=O)(=O)C(C)(C)C)C(C)(C)C)cc1
2. CC(C)(C)S(=O)(=O)c1cc2c(Nc3ccc4scnc4c3)ccnc2cc1OCCOCCOCCOCCOCC(=O)Nc1cccc2c1CN(C1CCC(=O)NC1=O)C2=O (configuration not stated)

100
63.1

====

I'd appreciate it if you could supply pIC50 values for the items below.
- assayed_target: E3 ubiquitin-protein ligase XIAP/Receptor-interacting serine/threonine-protein kinase 2 (Homo sapiens, UniProt O43353+P98170)
- experiment_notes: Protac activity at IAP/RIPK2 in human whole blood assessed as inhibition of MDP-induced TNFalpha production by ELISA
Numbers only, as −log10 of the molar value.

# mol_smiles, quantitative_result
rows = [
    ("CN[C@@H](C)C(=O)N[C@H](C(=O)N1CCC[C@H]1c1nc(C(=O)c2ccc(F)cc2)cs1)C1CCN(C(=O)c2cnc(N3CCC(COc4cc5ncnc(Nc6n[nH]c(C)c6C)c5cc4S(=O)(=O)C(C)(C)C)CC3)nc2)CC1", 7.60),
]

Record pIC50 per entry; entries follow.
1. Cc1[nH]nc(Nc2ncnc3cc(OCCCN4CCN(C(=O)c5cnc(N6CCN(C[C@H]7CN[C@H](C)CN7CC(=O)N7CC(C)(C)c8ncc(Cc9ccc(F)cc9)cc87)[C@H](C)C6)nc5)CC4)c(S(=O)(=O)C(C)(C)C)cc23)c1C
2. CN[C@@H](C)C(=O)N[C@H](C(=O)N1CCC[C@H]1c1nc(C(=O)c2ccc(F)cc2)cs1)C1CCN(C(=O)c2ccc(N3CCN(CCOc4cc5ncnc(Nc6n[nH]c(C)c6C)c5cc4S(=O)(=O)C(C)(C)C)CC3)nc2)CC1

1. 8.60
2. 8.00

# per-item lookup of pIC50; items listed below
1. CC[C@@H](NC(=O)[C@@H]1C[C@H](NC(=O)COCCOCCOCCOCCOc2cc3nccc(Nc4ccc5scnc5c4)c3cc2S(=O)(=O)C(C)(C)C)CN1C(=O)[C@@H](NC(=O)[C@H](C)NC)C(C)(C)C)c1ccccc1
2. CN[C@@H](C)C(=O)N[C@H](C(=O)N1CCC[C@H]1c1nc(C(=O)c2ccc(F)cc2)cs1)C1CCN(C(=O)COCCOCCOCCOCCOc2cc3nccc(Nc4ccc5scnc5c4)c3cc2S(=O)(=O)C(C)(C)C)CC1

7.60
8.00

====

Recorded below: IC50, system Receptor-interacting serine/threonine-protein kinase 2 (Homo sapiens, UniProt O43353).
In your response, the unit should come after the numeric value.

# compound, IC50
records = [
    ("Cc1[nH]nc(Nc2ncnc3cc(OCCCN4CCN(C(=O)c5cnc(N6CCN(C[C@H]7CN[C@H](C)CN7CC(=O)N7CC(C)(C)c8ncc(Cc9ccc(F)cc9)cc87)[C@H](C)C6)nc5)CC4)c(S(=O)(=O)C(C)(C)C)cc23)c1C", "0.0251 µM"),
    ("CN[C@@H](C)C(=O)N[C@H](C(=O)N1CCC[C@H]1c1nc(C(=O)c2ccc(F)cc2)cs1)C1CCN(C(=O)c2cnc(N3CCN(CCCOc4cc5ncnc(Nc6n[nH]c(C)c6C)c5cc4S(=O)(=O)C(C)(C)C)CC3)cn2)CC1", "0.0126 µM"),
    ("CN[C@@H](C)C(=O)N[C@H](C(=O)N1CCC[C@H]1c1nc(C(=O)c2ccc(F)cc2)cs1)C1CCN(C(=O)c2cnc(N3CCC(CCCOc4cc5ncnc(Nc6n[nH]c(C)c6C)c5cc4S(=O)(=O)C(C)(C)C)CC3)nc2)CC1", "0.0316 µM"),
]

// next entry
For the compound shown here, CN[C@@H](C)C(=O)N[C@H]1CN(C(=O)c2cnc(N3CCN(CCCOc4cc5ncnc(Nc6n[nH]c(C)c6C)c5cc4S(=O)(=O)C(C)(C)C)CC3)cn2)CC[C@H]2CC[C@@H](C(=O)NC3CCCc4ccccc43)N2C1=O (some centres undefined) , give the reported IC50. 0.00631 µM
